# Protocol Summary: Pharmacokinetics of compounds 1–11 in rat plasma (UPLC-TQ/MS) after oral administration of HYD and plus-minus Haizao/Gancao decoctions
# Type: in vivo, Wistar rats (PTU-induced model of hypothyroidism)
# Condition Set: Wistar, 1 mL/kg, group GC (extract of Gancao), 1 mL/kg intragastrically, model rats, n = 6, mean ± S.D.
# Procedure: Plasma samples (200 μL) and IS solution (50 μL, 1215 ng/mL for diphenhydramine, 476 ng/mL for chloromycetin) were added to an Eppendorf tube, and this mixture was extracted with methanol (550 μL) by shaking on a vortex-mixer for 2 min, and centrifuged for 10 min at 13,000 rpm. The contents were evaporated to dryness in a rotary evaporator at 37 °C. The residue was reconstituted in methanol (100 μL) and centrifuged (13,000 rpm for 10 min). […]
Endpoint Label: Tmax (h)

Solved cases (2 shown):
# Smiles, Tmax [h]
data = [
    ("O=C1C[C@@H](c2ccc(O)cc2)Oc2cc(O)ccc21", 2.5),
    ("O=C1C[C@@H](c2ccc(O[C@@H]3O[C@H](CO)[C@@H](O)[C@H](O)[C@H]3O)cc2)Oc2cc(O)ccc21", 0.67),
]

(P) CC1(C)[C@@H](O)CC[C@]2(C)[C@H]3C(=O)C=C4[C@@H]5C[C@@](C)(C(=O)O)CC[C@]5(C)CC[C@@]4(C)[C@]3(C)CC[C@@H]12
(Q) CC1(C)[C@@H](O[C@H]2O[C@H](C(=O)O)[C@@H](O)[C@H](O)[C@H]2O[C@@H]2O[C@H](C(=O)O)[C@@H](O)[C@H](O)[C@H]2O)CC[C@]2(C)[C@H]3C(=O)C=C4[C@@H]5C[C@@](C)(C(=O)O)CC[C@]5(C)CC[C@@]4(C)[C@]3(C)CC[C@@H]12
(Q) Form field 'greater Tmax' accepts P or Q ; which applies? Response format: the label of the selected entry.
(A) P
(P: 10 h, Q: 1.25 h)
